- testTarget: PRMT5/MEP50 complex (Homo sapiens (Human))
- Sequence (O14744 2-637): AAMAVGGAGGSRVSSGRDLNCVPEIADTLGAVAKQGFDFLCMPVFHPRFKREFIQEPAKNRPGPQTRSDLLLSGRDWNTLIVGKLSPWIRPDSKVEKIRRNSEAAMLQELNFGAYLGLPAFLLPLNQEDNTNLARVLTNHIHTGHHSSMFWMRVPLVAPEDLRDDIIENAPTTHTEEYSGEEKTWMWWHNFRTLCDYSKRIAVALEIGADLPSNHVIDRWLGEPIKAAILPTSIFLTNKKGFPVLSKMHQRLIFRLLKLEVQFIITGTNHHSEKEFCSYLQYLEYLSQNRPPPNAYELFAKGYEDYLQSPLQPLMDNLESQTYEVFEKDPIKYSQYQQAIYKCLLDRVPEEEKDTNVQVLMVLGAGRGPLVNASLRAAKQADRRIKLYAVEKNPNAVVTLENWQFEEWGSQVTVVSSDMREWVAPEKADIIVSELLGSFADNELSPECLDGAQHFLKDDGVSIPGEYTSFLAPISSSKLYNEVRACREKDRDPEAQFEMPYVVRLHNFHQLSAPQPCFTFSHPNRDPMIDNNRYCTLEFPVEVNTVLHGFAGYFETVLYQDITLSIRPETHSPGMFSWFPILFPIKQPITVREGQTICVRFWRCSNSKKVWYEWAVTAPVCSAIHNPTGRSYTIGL
- Sequence (Q9BQA1 2-342 partner): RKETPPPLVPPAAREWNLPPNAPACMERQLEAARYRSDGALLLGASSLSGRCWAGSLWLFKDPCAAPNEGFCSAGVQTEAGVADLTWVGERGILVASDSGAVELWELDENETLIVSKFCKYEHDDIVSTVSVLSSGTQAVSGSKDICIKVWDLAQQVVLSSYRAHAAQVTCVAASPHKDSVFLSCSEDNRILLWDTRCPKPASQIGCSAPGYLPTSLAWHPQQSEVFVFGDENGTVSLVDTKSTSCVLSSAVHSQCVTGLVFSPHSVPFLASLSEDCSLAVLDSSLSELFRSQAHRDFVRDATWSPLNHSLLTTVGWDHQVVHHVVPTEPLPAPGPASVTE
- procedureText: PRMT5:MEP50 FlashPlate Assay (histone H4 peptide substrate, plus and minus MTA)
- Format: biochemical
- details: IC50 + 2 μM MTA (nM), in the presence of 2 μM MTA
propertyMeasured: IC50 (nM)
State just the number; it will be interpreted in nM.

Record excerpt, results attached:
Which measured IC50 value corresponds to CC(C)c1cncc(-c2ccc3c(=O)[nH]nc(CN)c3c2)c1 ?
17

Which measured IC50 value corresponds to Cc1ccccc1Oc1cncc(-c2ccc3c(=O)[nH]nc(CN)c3c2)c1 ?
3

Which measured IC50 value corresponds to NCc1n[nH]c(=O)c2ccc(-c3cncc(Oc4cccc(F)c4)c3)cc12 ?
16

New cases:
Which measured IC50 value corresponds to NCc1n[nH]c(=O)c2ccc(-c3cncc(OCC4CC4)c3)cc12 ?
28

Which measured IC50 value corresponds to Cc1nc2ccc(Cl)nn2c1-c1ccc2c(=O)[nH]nc(CN)c2c1 ?
7900
